Every entry's value here was drawn from ChEMBL document CHEMBL3507680.

Below, each entry is listed alongside its reported cytotoxicity at 70.5 h.
Experiment: Human HepG2 cell viability assay in 384 well format
Assay type: toxicity, cell-based
Design: dose 125 nL, time 70.5 hour; concentration not given beside the values
Conditions: HepG2 cells, read-out: Inhibition
property-measured: cytotoxicity at 70.5 h

INSERT INTO results (compound, property_measured, reported_measurement) VALUES
  ('CC[C@@H](Cn1ncc2ccccc2c1=O)NC(=O)c1ccco1', 'cytotoxicity at 70.5 h', '-8.28%'),
  ('CC(C)c1cc(C(F)(F)F)n2nc(CCC(=O)O)nc2n1', 'cytotoxicity at 70.5 h', '10.3%'),
  ('COc1ccc(C(C(=O)O)N2CCC(O)(c3cccnc3)CC2)cc1Cl (stereo not drawn)', 'cytotoxicity at 70.5 h', '-9.89%'),
  ('CC(=O)Nc1nc(C(=O)NCc2ccnc(N3CCCC3)c2)cs1', 'cytotoxicity at 70.5 h', '-6.6%'),
  ('O=C(NCCCN1CCOCC1)c1ccn(COc2ccccc2)n1', 'cytotoxicity at 70.5 h', '-7.55%'),
  ('COCC1CN(C(=O)Nc2cc(Cl)cc(Cl)c2)CCO1 (stereo not drawn)', 'cytotoxicity at 70.5 h', '-5.22%'),
  ('CS(=O)(=O)NCC(=O)N1CCCC1c1noc(C2CC2)n1 (stereo not drawn)', 'cytotoxicity at 70.5 h', '-2.26%'),
  ('Cc1nccc(-c2ccccc2)c1C(=O)N1CCC2(CN(C)C(=O)O2)C1 (stereo not drawn)', 'cytotoxicity at 70.5 h', '-5.07%'),
  ('CNc1ccnc(N2C[C@@H]3CC[C@H](C2)N(CCOC)C3=O)n1', 'cytotoxicity at 70.5 h', '-8%'),
  ('COc1cccc(CNC(=O)C(C)N2CC(n3nc(C)cc3C)C2)c1 (stereo not drawn)', 'cytotoxicity at 70.5 h', '-12.9%'),
  ('Cc1ccc(CN2C[C@@H]3CN(C(=O)c4cccn4C)C[C@@H]3C2)cc1', 'cytotoxicity at 70.5 h', '-3.66%'),
  ('CN1CCN(CCCN(C)S(=O)(=O)CC2CCCCC2)CC1', 'cytotoxicity at 70.5 h', '-3.5%'),
  ('CCC(CO)NC(=O)Nc1cc(F)ccc1SCC(F)F (stereo not drawn)', 'cytotoxicity at 70.5 h', '-11.1%'),
  ('Cc1ccc2nccc(C(=O)N3CCOC(CCN(C)C)C3)c2c1 (stereo not drawn)', 'cytotoxicity at 70.5 h', '15.6%'),
  ('CN(C)CCOCc1nnc2n1CCN(Cc1ccco1)C2', 'cytotoxicity at 70.5 h', '-1.46%'),
  ('CCc1nnnn1Cc1csc(N(C)C(C)=O)n1', 'cytotoxicity at 70.5 h', '11.5%'),
  ('CC(=O)N1CCC(N2CC[C@H](c3nc4cc(F)ccc4o3)C2)CC1', 'cytotoxicity at 70.5 h', '0.135%'),
  ('Cc1cccc(NC2CCN(C(=O)Nc3cc(F)cc(F)c3)CC2)n1', 'cytotoxicity at 70.5 h', '42.8%'),
  ('O=C(NCC1(c2ccc(F)cc2)CCC1)N1CCC2(CCOCC2)C1', 'cytotoxicity at 70.5 h', '7.66%'),
  ('CN(Cc1cn2c(n1)CN(C(=O)C1CCOCC1)CC2)Cc1ccco1', 'cytotoxicity at 70.5 h', '-1.65%'),
  ('CN(CC(=O)N(C)C1CCCCC1)Cc1nc2ccccc2c(=O)[nH]1', 'cytotoxicity at 70.5 h', '-6.53%'),
  ('CS(=O)(=O)N1CCOC2(CCCN(c3ncc(F)cn3)C2)C1 (stereo not drawn)', 'cytotoxicity at 70.5 h', '-2.76%'),
  ('CCCc1cc(C(=O)N(CC)Cc2ccncc2)[nH]n1', 'cytotoxicity at 70.5 h', '-7.59%');
